Values compiled from ChEMBL document CHEMBL4339224.

Molecular target: Nuclear factor erythroid 2-related factor 2 (Homo sapiens)
Sequence (Q16236 whole entry): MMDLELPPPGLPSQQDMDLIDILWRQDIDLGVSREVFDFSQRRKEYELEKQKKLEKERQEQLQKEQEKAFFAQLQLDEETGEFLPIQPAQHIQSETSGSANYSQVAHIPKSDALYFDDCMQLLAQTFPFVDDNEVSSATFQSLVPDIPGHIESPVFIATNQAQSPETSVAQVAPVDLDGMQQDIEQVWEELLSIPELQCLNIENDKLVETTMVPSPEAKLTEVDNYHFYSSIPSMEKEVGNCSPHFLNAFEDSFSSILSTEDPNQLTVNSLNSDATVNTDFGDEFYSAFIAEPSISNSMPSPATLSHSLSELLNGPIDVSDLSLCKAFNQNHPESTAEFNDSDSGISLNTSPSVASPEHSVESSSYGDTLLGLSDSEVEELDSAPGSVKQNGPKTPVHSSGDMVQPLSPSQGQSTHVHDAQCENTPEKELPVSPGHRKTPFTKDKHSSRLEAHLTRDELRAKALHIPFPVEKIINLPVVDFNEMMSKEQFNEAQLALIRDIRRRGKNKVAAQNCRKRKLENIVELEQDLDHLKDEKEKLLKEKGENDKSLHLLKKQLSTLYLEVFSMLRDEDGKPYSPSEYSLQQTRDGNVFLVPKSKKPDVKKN
Experiment: Activation of Nrf2 in human HaCaT-ARE-Luc cells expressing Nqo1 ARE-Luc reporter plasmid incubated for 6 hrs by luciferase reporter gene assay
pEC50: −log10 of the molar value.
Reported Property: pEC50

Here's what some known entries look like.
>>> number("CC1=CC(O/C=C2\\C[C@]3(C)C(COc4ccc5ccc(=O)oc5c4)[C@](C)(O)CC[C@H]3C(C)(C)C2=O)OC1=O (stereo not given in full)")
5.92
>>> number("CC(C)=CCCC(C)CCOC1C=C(C)C(=O)O1 (stereo not given)")
4.64
>>> number("COC(=O)/C(C)=C/CC/C(C)=C/CC/C(C)=C/CC[C@@H]1[C@@]2(C)C/C(=C\\OC3C=C(C)C(=O)O3)C(=O)C(C)(C)C2CC[C@@]1(C)O (stereo not given in full)")
5.60
>>> number("CC1=CC(OC2C[C@H](C)CC[C@H]2C(C)C)OC1=O (stereo not given in full)")
4.58

[a] CC1=CC(O/C=C2/C(=O)[C@H](C(C)C)CC[C@H]2C)OC1=O (stereo not given in full)
[b] CC1=CC(O/C=C2/C(=O)C(=C(C)C)CC[C@H]2C)OC1=O (stereo not given in full)
[c] CC(C)=CCOC1C=C(C)C(=O)O1 (stereo not given)
[d] C=C(C)[C@@H]1CC=C(C)C(=O)/C1=C/OC1C=C(C)C(=O)O1 (stereo not given in full)
In: Returns the items ordered by pEC50, from maximum to minimum. // rank by listing labels in the order requested
Out: d, b, a, c
(d: 5.80, b: 5.30, a: 4.75, c: 4.53)

[a] CC1=CC(OCC2=CC3CC(C2)C3(C)C)OC1=O (stereo not given)
[b] CC1=CC(O/C=C2/C(=O)C(C)[C@H]3C[C@@]23C(C)C)OC1=O (stereo not given in full)
In: Endpoint returns whichever of a and b has the numerically higher pEC50. Please respond with the label that marks your chosen entry.
Out: b

* * *

target: Nuclear factor erythroid 2-related factor 2 (Homo sapiens, UniProt Q16236); experiment: Activation of Nrf2 in human HaCaT-ARE-Luc cells expressing Nqo1 ARE-Luc reporter plasmid incubated for 6 hrs by luciferase reporter gene assay
pEC50: −log10 of the molar value.
Reported Property: pEC50

>>> number("CC1=CC(OCc2ccc(C(C)C)cc2)OC1=O (stereo not given)")
4.79

[P] CC1=C[C@H](O/C=C2/C(=O)O[C@@H]3C4=C(C[C@H]23)[C@@H](O)CCC4(C)C)OC1=O
[Q] CC(C)=CCC/C(C)=C/COC1C=C(C)C(=O)O1 (stereo not given)
In: Could you tell me which of P and Q has the lower pEC50 reading? Please respond with the label that marks your chosen entry.
Out: Q
